Target: T1, human DR3 (full length, on cells) (human, UniProt Q93038 25-417)
T1 sequence: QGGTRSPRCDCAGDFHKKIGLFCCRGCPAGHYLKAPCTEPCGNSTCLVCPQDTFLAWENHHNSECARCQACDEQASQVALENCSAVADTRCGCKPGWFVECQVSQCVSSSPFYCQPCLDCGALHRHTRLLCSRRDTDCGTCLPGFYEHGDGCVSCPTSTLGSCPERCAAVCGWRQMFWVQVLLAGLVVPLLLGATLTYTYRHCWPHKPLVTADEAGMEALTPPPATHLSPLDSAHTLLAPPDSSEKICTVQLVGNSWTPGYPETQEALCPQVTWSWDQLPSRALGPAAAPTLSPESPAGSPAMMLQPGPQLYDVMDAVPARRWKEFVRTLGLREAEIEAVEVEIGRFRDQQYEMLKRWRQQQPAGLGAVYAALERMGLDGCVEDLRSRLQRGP
Assay: cell-based or functional assay
assay-endpoint: IFN-γ, TL1A-costimulated RA SF cells, Fab 0.1 µg/mL (pg/mL)
Kindly answer with a numeric value in pg/mL, unit omitted.

Reference set (3 entries):
>>> observed_result("0171 (humanized IgG1 Fab of 0072 without back mutations) (Fab, V domains shown) VH: EVQLVESGGGLVQPGGSLRLSCAASGFTFSNYDMSWVRQATGKGLEWVSAFSSDGYTFYPGSVKGRFTISRENAKNSLYLQMNSLRAGDTAVYYCARHADYANYPVMDYWGQGTLVTVSS VL: DIQMTQSPSSLSASVGDRVTITCRASKSVSTSGYSYMHWYQQKPGKAPKLLIYLASNLESGVPSRFSGSGSGTDFTLTISSLQPEDFATYYCQHSRELPLTFGGGTKVEIK")
1140
>>> observed_result("0173 (humanized IgG1 Fab of 0072; HC T28A S49A Y91S; LC Q3A T5A S60A M4L) (Fab, V domains shown) VH: EVQLVESGGGLVQPGGSLRLSCAASGFTFSNYDMSWVRQAAGKGLEWVSAFSSDGYTFYPGAVKGRFTISRENAKNSLYLQMNSLRAGDTAVYYCARHADYANSPVMDYWGQGTLVTVSS VL: DIALAQSPSSLSASVGDRVTITCRASKSVSTSGYSYMHWYQQKPGKAPKLLIYLASNLEAGVPSRFSGSGSGTDFTLTISSLQPEDFATYYCQHSRELPLTFGGGTKVEIK")
1130
>>> observed_result("0118 (chimeric Fab of 27F16, human IgG1 constant domain) (Fab, V domains shown) VH: EVQLVESGGDFVKPGGSLKLSCAASGFTFNNYGMSWVRQTPDKRLEWVAAISSGVTYTYYPDTVKGRFTISRDNAKNTLYLHMSSLKSEDTAMYYCGRHDDYGNHFDYWGQGTTLTVSS VL: DIVMTQSPSSLAMSLGQRVTMNCKSSQSLLNSHNQKNYLAWYQQKPGQSPKLLVYFASSRESGVPDRFIGSGSGTDFTLTISSVQAEDLADYFCQQHYSTPFTFGSGTKLEIKR")
2100

We next turn to a different binder, shown below.
Note IFN-γ, TL1A-costimulated RA SF cells, Fab 0.1 µg/mL for the binder shown: 0170 (humanized IgG1 Fab of 0072; HC T28A S49A Y91; LC Q3A T5A S60A M4) (Fab, V domains shown) VH: EVQLVESGGGLVQPGGSLRLSCAASGFTFSNYDMSWVRQAAGKGLEWVSAFSSDGYTFYPGAVKGRFTISRENAKNSLYLQMNSLRAGDTAVYYCARHADYANYPVMDYWGQGTLVTVSS VL: DIAMAQSPSSLSASVGDRVTITCRASKSVSTSGYSYMHWYQQKPGKAPKLLIYLASNLEAGVPSRFSGSGSGTDFTLTISSLQPEDFATYYCQHSRELPLTFGGGTKVEIK
1170

These data points were gathered from patent US20170305994A1.
